- Test system: KRAS PDC multicell spheroid viability
- assay_text: Anticancer human tumor 825966-067-R-J1-PDC patient-derived colon carcinoma cell line growth inhibition [KRAS2]
- assay_context: second compound 0.1 µM; first compound 0.316 µM; active compounds read low
This listing pairs molecules with measured viability, T/C.
Give the value in % but do not write % after it.

COC(=O)c1ccc2c(C(=Nc3ccc(N(C)C(=O)CN4CCN(C)CC4)cc3)c3ccccc3)c(O)[nH]c2c1 + C=CC(=O)N1CCN(c2nc(OCC3CCCN3C)nc3c2CCN(c2cccc4cccc(C)c24)C3)CC1CC#N
96.4
O=C(c1cc(Cc2n[nH]c(=O)c3ccccc23)ccc1F)N1CCN(C(=O)C2CC2)CC1 + CC1OCC2(CCN(c3cnc(Sc4ccnc(N)c4Cl)c(N)n3)CC2)C1N
82
COc1cc(Nc2ncc3c(n2)-c2ccc(Cl)cc2C(c2c(F)cccc2OC)=NC3)ccc1C(=O)O + COc1cc2nc(C)nc(NC(C)c3cc(N)cc(C(F)(F)F)c3)c2cc1OC1CCOC1
144
CCNC(=O)CC1N=C(c2ccc(Cl)cc2)c2cc(OC)ccc2-n2c(C)nnc21 (stereo not given) + C=CC(=O)N1CCN(c2nc(OCC3CCCN3C)nc3c2CCN(c2cccc4cccc(C)c24)C3)CC1CC#N
113

Now consider a different molecule.
# input molecule: CC1(C)CCC(CN2CCN(c3ccc(C(=O)NS(=O)(=O)c4ccc(NCC5CCOCC5)c([N+](=O)[O-])c4)c(Oc4cnc5[nH]ccc5c4)c3)CC2)=C(c2ccc(Cl)cc2)C1 + CNCc1ccccc1-c1csc(C(C)Nc2nc(C)nc3cc(OC)c(OC)cc23)c1 ; wanted: its viability, T/C
97.5

* * *

- Test system: KRAS PDC multicell spheroid viability
- assay_text: Anticancer human tumor 825966-067-R-J1-PDC cell line growth inhibition [KRAS2];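 further: spheroids exposed to compounds for 7 days; 100% = DMSO vehicle control viability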
- assay_context: second compound 1 µM; first compound 0.000316 µM; active compounds read low
This listing pairs molecules with measured viability, T/C.
Give the value in % but do not write % after it.

These recorded examples may help you get a feel for the data.
CN(C)C/C=C/C(=O)Nc1cc2c(Nc3ccc(F)c(Cl)c3)ncnc2cc1O[C@H]1CCOC1 + C=CC(=O)N1CCN(c2nc(=O)n(-c3c(C)ccnc3C(C)C)c3nc(-c4c(O)cccc4F)c(F)cc23)C(C)C1
110
Cn1ncnc1[C@H]1c2n[nH]c(=O)c3cc(F)cc(c23)N[C@@H]1c1ccc(F)cc1 + CNCc1ccccc1-c1csc(C(C)Nc2nc(C)nc3cc(OC)c(OC)cc23)c1
85.9

Now consider a different molecule.
# input molecule: CC(C)n1nc(-c2ccc3oc(N)nc3c2)c2c(N)ncnc21 + C=CC(=O)N1CCN(c2nc(=O)n(-c3c(C)ccnc3C(C)C)c3nc(-c4c(O)cccc4F)c(F)cc23)C(C)C1 ; wanted: its viability, T/C
106

* * *

- Test system: KRAS PDC multicell spheroid viability
- assay_text: Anticancer human tumor 825966-067-R-J1-PDC cell line growth inhibition [KRAS2];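 further: spheroids exposed to compounds for 7 days; 100% = DMSO vehicle control viability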
- assay_context: second compound 0.316 µM; first compound 0.01 µM; active compounds read low
This listing pairs compounds with measured viability, T/C.
Give the value in % but do not write % after it.

These recorded examples may help you get a feel for the data.
CCN1CCN(Cc2ccc(Nc3ncc(F)c(-c4cc(F)c5nc(C)n(C(C)C)c5c4)n3)nc2)CC1 + C=CC(=O)N1CCN(c2nc(=O)n(-c3c(C)ccnc3C(C)C)c3nc(-c4c(O)cccc4F)c(F)cc23)C(C)C1
85.9
Cn1ncnc1[C@H]1c2n[nH]c(=O)c3cc(F)cc(c23)N[C@@H]1c1ccc(F)cc1 + CC1OCC2(CCN(c3cnc(Sc4ccnc(N)c4Cl)c(N)n3)CC2)C1N
106
CC(=O)Nc1cccc(-n2c(=O)n(C3CC3)c(=O)c3c(Nc4ccc(I)cc4F)n(C)c(=O)c(C)c32)c1 + CC1OCC2(CCN(c3cnc(Sc4ccnc(N)c4Cl)c(N)n3)CC2)C1N
64.8
CC(C)n1nc(-c2ccc3oc(N)nc3c2)c2c(N)ncnc21 + C=CC(=O)N1CCN(c2nc(OCC3CCCN3C)nc3c2CCN(c2cccc4cccc(C)c24)C3)CC1CC#N
154

Now consider a different compound.
# input compound: CC(=O)OC12COC1CC(O)C1(C)C(=O)C(O)C3=C(C)C(OC(=O)C(O)C(NC(=O)OC(C)(C)C)c4ccccc4)CC(O)(C(OC(=O)c4ccccc4)C21)C3(C)C (stereo not given) + C=CC(=O)N1CCN(c2nc(OCC3CCCN3C)nc3c2CCN(c2cccc4cccc(C)c24)C3)CC1CC#N ; wanted: its viability, T/C
23
